Tested Target: D(4) dopamine receptor (Homo sapiens)
Sequence (P21917 whole entry): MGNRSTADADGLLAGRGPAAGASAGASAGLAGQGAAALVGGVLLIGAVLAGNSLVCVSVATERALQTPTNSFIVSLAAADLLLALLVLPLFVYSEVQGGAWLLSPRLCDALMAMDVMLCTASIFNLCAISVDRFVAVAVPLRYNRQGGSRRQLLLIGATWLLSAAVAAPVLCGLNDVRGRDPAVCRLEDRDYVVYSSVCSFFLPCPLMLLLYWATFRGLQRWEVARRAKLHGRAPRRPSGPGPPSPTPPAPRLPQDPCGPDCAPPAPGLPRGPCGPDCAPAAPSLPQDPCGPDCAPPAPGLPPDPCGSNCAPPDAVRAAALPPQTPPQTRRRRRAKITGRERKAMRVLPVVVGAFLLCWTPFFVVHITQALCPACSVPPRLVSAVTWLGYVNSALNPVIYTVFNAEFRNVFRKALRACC
Test: Displacement of [3H]spiperone from wild type human cloned dopamine D4 receptor expressed in HEK293 cells
Format: cell-based
Measured Ki, listed per entry.
Test Readout: Ki (nM)

INSERT INTO assay_data (test_smiles, test_readout, observed_result) VALUES
  ('Clc1ccc(N2CCN(Cc3cc4ccccn4n3)CC2)cc1', 'Ki', 6.8),
  ('CSc1ccccc1N1CCN(CCCCNC(=O)c2cc3ccccn3n2)CC1', 'Ki', 310),
  ('CSc1ccccc1N1CCN(CCCNC(=O)c2cnn3ccccc23)CC1', 'Ki', 26),
  ('COc1ccccc1N1CCN(Cc2cc3ccccn3n2)CC1', 'Ki', 2.3);
